target: Arginase II (Mus musculus); construct: Tissue lysates of kidney were prepared using lysis buffer; assay: Arginase II inhibitory activity, enzyme solution from mouse kidney lysate, urea determined at 550 nm; conditions: kidney lysates of C57BL/6 mice; 50 % inhibition relative to vehicle control; average of three repeated experiments
Sequence (O08691 23-354): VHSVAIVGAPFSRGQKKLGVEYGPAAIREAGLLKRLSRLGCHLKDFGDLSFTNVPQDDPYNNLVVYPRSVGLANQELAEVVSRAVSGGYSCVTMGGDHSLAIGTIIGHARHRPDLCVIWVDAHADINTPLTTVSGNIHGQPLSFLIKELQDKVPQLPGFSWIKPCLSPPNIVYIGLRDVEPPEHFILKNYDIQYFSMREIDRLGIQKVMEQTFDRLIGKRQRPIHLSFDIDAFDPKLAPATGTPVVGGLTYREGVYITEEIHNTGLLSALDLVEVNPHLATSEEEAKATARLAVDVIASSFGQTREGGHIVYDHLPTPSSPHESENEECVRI
pIC50: −log10 of the molar value.
Property: pIC50

Compound	pIC50
COc1c(O)cc(O)c2c(=O)cc(-c3ccccc3)oc12 [Compound 2, wogonin]	< 3.70
COc1ccccc1[C@@H]1CC(=O)c2c(O)cc(O)c(OC)c2O1 [Compound 3]	4.60
COc1cc(O)c2c(c1OC)OC(c1cc(O)ccc1OC1OC(CO)C(O)C(O)C1O)CC2=O (stereo not drawn) [Compound 8]	< 3.70
O=C1C[C@@H](c2ccc(O)cc2)Oc2cc(O)cc(O[C@@H]3O[C@H](CO)[C@@H](O)[C@H](O)[C@H]3O)c21 [Compound 7, naringenin-5-O-β-D-glucopyranoside]	< 3.70
O=c1cc(-c2ccc(O)cc2)oc2cc(O)cc(O)c12 [Compound 4, apigenin]	< 3.70
OC[C@H]1O[C@@H](Oc2cc(/C=C/c3cc(O)cc(O)c3)ccc2O)[C@H](O)[C@@H](O)[C@@H]1O [PG, piceatannol-3′-O-β-D-glucopyranoside, reference compound]	6.00
COc1cc(O)c2c(c1OC)O[C@H](c1cc(O)ccc1O)CC2=O [Compound 5]	4.94
COc1ccc([C@H]2C[C@H](OC)c3c(OC)c(OC)c(OC)c(OC)c3O2)cc1 [Compound 1, (2R,4S)-4,5,6,7,8,4′-hexamethoxylflavan]	< 3.70

Then there is this compound:
Report pIC50 for O=C1C[C@@H](c2ccc(O)cc2)Oc2cc(O)cc(O)c21 [Compound 6, naringenin] please.
< 3.70
